Target: HLA-DRB1*0701 (Homo sapiens, UniProt P01903+P01911, A100R/A102G/A103Q/D57E/D86V/E43K/F76Y/K127E/L162R/M171V/P40G/Q125H/Q99D/R33Q/R42Y/R54Q/S133A/S66F/T210M/V115G/Y107V/Y59L/Y89S)
Assay: biochemical
Type: binding
Conditions: binding inhibition assay; NB = non-binder (no dose-dependent inhibition); read-out: DRB1*0701 IC50
Where a SMILES comes first, the peptide text is derived from it.
outcome measure: pIC50
Bear in mind: pIC50 is minus log10 of a mol/L concentration; give just that figure.

Would you mind telling me what pIC50 value was observed for CC[C@H](C)[C@H](NC(=O)[C@H](CS)NC(=O)[C@H](CCC(=O)O)NC(=O)CNC(=O)[C@H](CCCNC(=N)N)NC(=O)[C@H](CO)NC(=O)[C@H](CO)NC(=O)[C@H](CCCNC(=N)N)NC(=O)[C@H](Cc1ccc(O)cc1)NC(=O)[C@H](Cc1ccc(O)cc1)NC(=O)[C@H](Cc1c[nH]cn1)NC(=O)[C@H](CCC(=O)O)NC(=O)[C@H](CCCCN)NC(C)=O)C(=O)N[C@@H](CC(C)C)C(=O)N[C@@H](CC(N)=O)C(=O)N[C@@H](CC(=O)O)C(N)=O [RIPR_017] (Ac-KEHYYRSSRGECILND-NH2) ?
6.31

###

Kindly supply the reported IC50 values for the records listed here.
Target: HLA-A*0201 (Homo sapiens, UniProt P04439, D140Y/D185E/D98H/E176V/E277Q/G131W/G231S/I119V/I121R/I166T/I218V/L300P/L318F/N151K/N90K/P208A/P217A/Q86G/Q94H/R138H/R169H/T345S)
Experiment: In vitro class I HLA binding assay (fluorescence polarization competition)
Conditions: allele A*0201; cell-free competition, fluorescence polarization at 72 hours; Non-binder = no dose-dependent inhibition; read-out: IC50
Where a SMILES comes first, the peptide text is derived from it.
Write down the numeric answer in µM and omit the unit.

Reported IC50, molecule CC[C@H](C)[C@H](NC(=O)[C@H](CO)NC(=O)[C@H](CCCCN)NC(=O)[C@H](Cc1ccccc1)NC(=O)[C@H](CCC(=O)O)NC(=O)[C@H](CO)NC(=O)[C@H](Cc1ccc(O)cc1)NC(=O)[C@H](CCSC)NC(=O)[C@@H](N)CCCCN)C(=O)O [EBA175_0697] (H-KMYSEFKSI-OH) : ____
1.02

Reported IC50, molecule CC[C@H](C)[C@H](NC(=O)[C@H](CC(C)C)NC(=O)[C@@H](N)CO)C(=O)N[C@@H](CCCCN)C(=O)N[C@@H](CCC(N)=O)C(=O)N[C@@H](CC(N)=O)C(=O)N[C@@H](CCCCN)C(=O)N[C@@H](Cc1ccc(O)cc1)C(=O)N[C@H](C(=O)O)C(C)C [EBA175_0116] (H-SLIKQNKYV-OH) : ____
29.9

Field request: IC50 | item: CC(C)C[C@H](NC(=O)[C@H](CC(N)=O)NC(=O)[C@H](CC(=O)O)NC(=O)[C@@H](NC(=O)[C@@H](NC(=O)[C@H](CCC(=O)O)NC(=O)[C@H](Cc1ccccc1)NC(=O)[C@H](CC(C)C)NC(=O)[C@@H](N)Cc1ccccc1)C(C)C)[C@@H](C)O)C(=O)O [EBA175_1461] (H-FLFEVTDNL-OH)
0.269

Entry under review: CC[C@H](C)[C@H](NC(=O)[C@@H](NC(=O)[C@H](CC(N)=O)NC(=O)[C@H](CC(=O)O)NC(=O)[C@H](CC(N)=O)NC(=O)CNC(=O)[C@H](CC(N)=O)NC(=O)[C@H](CC(C)C)NC(=O)[C@@H](N)C(C)C)[C@@H](C)O)C(=O)O [EBA175_0437] (H-VLNGNDNTI-OH) . Reported IC50?
7.31

// IC50 lookup, key: CC[C@H](C)[C@H](NC(=O)[C@@H](NC(=O)[C@H](CO)NC(=O)[C@H](CO)NC(=O)[C@H](CCC(=O)O)NC(=O)[C@H](CC(C)C)NC(=O)[C@@H]1CCCN1C(=O)[C@H](CC(C)C)NC(=O)[C@@H](N)CCCCN)[C@@H](C)O)C(=O)O [EBA175_0896] (H-KLPLESSTI-OH)
2.12

What value of IC50 has been reported for the following molecule? CC[C@H](C)[C@H](NC(=O)[C@@H](NC(=O)[C@H](CC(N)=O)NC(=O)[C@H](CC(=O)O)NC(=O)[C@H](CC(N)=O)NC(=O)CNC(=O)[C@H](CC(N)=O)NC(=O)[C@H](CC(C)C)NC(=O)[C@@H](NC(=O)[C@@H](N)CO)C(C)C)[C@@H](C)O)C(=O)O [EBA175_0436] (H-SVLNGNDNTI-OH)
640
